target: recombinant JAK1 (amino acids 866-1154) (Homo sapiens (Human), UniProt P23458); assay: Enzyme inhibition studies, JAK1 (peptide phosphorylation, Caliper LC3000); conditions: ATP concentration not given (assayed at ATP Km 55 μM and at 5 mM)
Sequence (P23458 866-1154): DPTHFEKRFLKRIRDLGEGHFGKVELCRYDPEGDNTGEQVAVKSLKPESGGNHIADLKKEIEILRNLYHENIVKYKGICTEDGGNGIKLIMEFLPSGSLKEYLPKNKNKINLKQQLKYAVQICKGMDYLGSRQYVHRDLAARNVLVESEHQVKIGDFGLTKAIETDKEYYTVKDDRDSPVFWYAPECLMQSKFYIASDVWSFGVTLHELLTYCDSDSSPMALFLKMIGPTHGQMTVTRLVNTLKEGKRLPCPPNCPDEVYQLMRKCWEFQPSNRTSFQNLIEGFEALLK
I'd be grateful if you could share measured IC50 for these entries.
Give bare numbers, in nM.

Recorded IC50, per entry:
COc1nn(C)cc1Nc1ncc(C)c(-c2c[nH]c3c(NC(=O)[C@@H](C)N4CCN(CCO)CC4)cccc23)n1 7
CCOc1nn(C)cc1Nc1ncc(F)c(-c2c[nH]c3c(NC(=O)[C@@H](C)N4CCN(C)[C@H](C)C4)cccc23)n1 166
CCn1cc(Nc2ncc(C)c(-c3c[nH]c4c(NC(=O)[C@@H](C)N5CCN(C)CC5)cccc34)n2)c(OC)n1 17

// for each compound in input: emit IC50
1. COc1nn(C)cc1Nc1nccc(-c2c[nH]c3c(NC(=O)[C@@H](C)N4CCN(C)C[C@@H]4C)cccc23)n1
2. COc1nn(C)cc1Nc1nccc(-c2c[nH]c3c(NC(=O)[C@@H](C)N4CCN(C)[C@H](C)C4)cccc23)n1
3. CC[C@H](C(=O)Nc1cccc2c(-c3ccnc(Nc4cn(C)nc4OC)n3)c[nH]c12)N1CCN(C)CC1
4. CCN1CCN([C@H](C)C(=O)Nc2cccc3c(-c4nc(Nc5cn(C)nc5OC)ncc4C)c[nH]c23)CC1

1: 847; 2: 304; 3: 13; 4: 19

Data origin, for the record: patent US9714236B2
